Recorded values, source PubChem BioAssay (NCI).

Catalogue of TGI values
System: UO-31 renal
Assay: NCI tumour cell line growth inhibition, 48 h

Consider the following illustrative entries.
{"compound": "CC1(C)C(=O)/C(=C/c2ccccc2)C(C)(C)C1(C)C", "TGI": "> 100 µM"}
{"compound": "Cc1ccc(-n2nc(C(OC3OC(CO)C(O)C(O)C3O)C(O)CO)c3nc4cc(C)c(C)cc4nc32)cc1 (stereo not given)", "TGI": "> 100 µM"}
{"compound": "Nc1nc(-c2ccccc2)c(CC(=O)O)s1", "TGI": "> 100 µM"}
{"compound": "Cc1cc(-c2ccc(N=Nc3ccc4c(S(=O)(=O)O)cc(S(=O)(=O)O)c(N)c4c3O)c(C)c2)ccc1N=Nc1ccc2c(S(=O)(=O)O)cc(S(=O)(=O)O)c(N)c2c1O", "TGI": "> 100 µM"}
{"compound": "O=C(O)CCCc1ccc2c(c1)C(C(=O)O)CC2 (stereo not given)", "TGI": "> 100 µM"}
{"compound": "COc1cc2c(cc1O)NC(=O)[C@@H]1C[C@@H](O)CN1C2=O", "TGI": "> 100 µM"}

// lookup TGI for [N-]=[N+]=CC(=O)C1CCN(c2ccccc2)C1=O (stereo not given)
> 10 µM

// lookup TGI for `O=C(N/N=C/c1ccccc1)c1c(F)c(F)c(F)c(F)c1F`
> 100 µM

// lookup TGI for `O=c1c2ccc(Cl)cc2oc2c(CSc3ccccc3)cccc12`
> 38.4 µM

// lookup TGI for `N#CN1CC[C@H](C(=O)Nc2ncc(-c3ccccc3)s2)C1`
5.36 µM

----------
Test system: DU-145 prostate
Experiment: NCI tumour cell line growth inhibition, 48 h
Catalogue of GI50 values

Consider the following illustrative entries.
{"compound": "OCc1ccc(-c2ccc(-c3ccc(CO)o3)o2)o1", "GI50": "> 62.4 µM"}
{"compound": "CCOC(=O)[C@@H](C)C[C@H](Cc1ccccc1)NC(=O)c1csc([C@@H](C[C@H](C(C)C)N(C)C(=O)CNC(=O)[C@H]2CCCCN2C)OC(C)=O)n1", "GI50": "0.58 µM"}
{"compound": "S=C(Sc1ccc(Cl)cc1)Sc1ccc(Cl)cc1", "GI50": "3.6 µM"}
{"compound": "CCc1ccc(Oc2c(-c3ccc(OCc4ccc(Cl)cc4)cc3O)nn(C)c2C(F)(F)F)cc1", "GI50": "0.545 µM"}
{"compound": "C[C@]12CCc3nc(Nc4ccc(O)cc4)sc3C1=CC[C@@H]1[C@@H]2CC[C@]2(C)/C(=N/NC(N)=S)CC[C@@H]12", "GI50": "1.64 µM"}
{"compound": "CCOC(=O)c1cc(C(=O)c2ccc(OC)c(OC)c2)n2c1ccc1ccc3cccnc3c12", "GI50": "3.45 µM"}
{"compound": "Cc1ccccc1Nc1cc(O)c2c(=O)cc(-c3ccccc3)oc2c1", "GI50": "3.78 µM"}
{"compound": "CN(C)C1C(=O)C(C(N)=O)=C(O)C2(O)C(=O)C3=C(O)c4c(O)cccc4C(C)(O)C3CC12.[Cl][Sb]([Cl])[Cl] (stereo unspecified)", "GI50": "4.33 µM"}

// lookup GI50 for `Nc1nc(Cl)c2ncn(Cc3ccc(C45CC6CC(CC(C6)C4)C5)c(OCc4cc(F)c(F)cc4F)c3)c2n1`
4.08 µM

// lookup GI50 for `O=C(Nc1ccc(-n2cc(-c3ccncc3)c(-c3ccc(O)c(Cl)c3)n2)cc1)Nc1cc(C(F)(F)F)cc(C(F)(F)F)c1`
5.97 µM

// lookup GI50 for NC1=NC(c2ccccc2Cl)c2c(n[nH]c2N)N1 (stereo unspecified)
61 µM
